Tested on: HepG2
Assay: Cytotoxicity against human HepG2 cells assessed as reduction in cell viability at 2 uM measured after 48 hrs by cell titre glo luminescence assay
Type: toxicity, cell-based
Settings: hepg2, 48 h
One threshold, 60%, splits the recorded cell viability remaining values: lower ones are 1, equal or higher ones are -1.

Use the examples below as a reference point.
O=C(c1ccc(Nc2nccc(-c3cc4ccccc4s3)n2)cc1)N1CCC(N2CCCC2)CC1: -1
O=C(c1ccc(Nc2ncc(C3CC3)c(-c3cc4ccccc4s3)n2)cc1)N1CCC(N2CCCC2)CC1: 1
O=C(c1ccc(Nc2nccc(-c3ccc4ccccc4c3)n2)cc1)N1CCC(N2CCCC2)CC1: -1
Cc1cnc(Nc2ccc(C(=O)N3CCC(N4CCCC4)CC3)cc2)nc1-c1cc2ccccc2s1: -1
c1ccc2sc(-c3ccnc(Nc4ccc(CN5CCC(N6CCCC6)CC5)cc4)n3)cc2c1: -1
O=C(c1ccc(Nc2ncc(Cl)c(-c3ccc(Cl)s3)n2)cc1)N1CCC(N2CCCC2)CC1: 1
O=C(NCCCN1CCOCC1)c1ccc(Nc2ncc(Cl)c(-c3ccc(Cl)s3)n2)cc1: -1
N#Cc1cnc(Nc2ccc(C(=O)N3CCC(N4CCCC4)CC3)cc2)nc1-c1cc2ccccc2s1: -1

Okay, now this compound:
Dear colleague, could you confirm whether cell viability remaining of Cc1cnc(Nc2ccc(C(=O)N3CCC(N4CCCC4)CC3)cc2)nc1-c1ccc(Cl)s1 falls below 60%? Thanks. -1

----------
Reported residual activity by item:
Biological target: Glycogen synthase kinase 3 (Plasmodium falciparum (isolate 3D7))
Test: Inhibition of Plasmodium falciparum GSK3 at 1 uM measured after 2 hrs by luciferin-based luminescence assay relative to control; values are per cent of control
Could you give me the number in %? Just the number is fine.

# annotated cases, reported residual activity shown
Clc1ccccc1Nc1nccc(-c2cc3ccccc3s2)n1: 100
Clc1ccc(Nc2nccc(-c3cc4ccccc4s3)n2)cc1: 89
COC(=O)c1ccc(Nc2nccc(-c3cc4ccccc4s3)n2)cc1: 71

Please give the measured residual activity for this compound: COc1ccccc1Nc1nccc(-c2cc3ccccc3s2)n1 100

Continue with Clc1cccc(Nc2nccc(-c3cc4ccccc4s3)n2)c1 89

Now give it for c1ccc(CNc2nccc(-c3cc4ccccc4s3)n2)cc1 too. 100

Same read-out for COc1ccc(Nc2nccc(-c3cc4ccccc4s3)n2)cc1 ? 97

Proceed to COc1cccc(Nc2nccc(-c3cc4ccccc4s3)n2)c1 97

Please do the same for c1ccc(Nc2nccc(-c3cc4ccccc4s3)n2)cc1 as well. 100

What would you report for O=C(O)c1ccc(Nc2nccc(-c3cc4ccccc4s3)n2)cc1 ? 33

----------
System: Plasmodium falciparum
Assay: Antiplasmodial activity against Plasmodium falciparum 3D7 infected in human erythrocytes assessed as reduction in parasite growth incubated for 72 hrs by SYBR green I fluorescence based assay
Format: functional, organism-based
Conditions: 3D7, 72 h
property-label: log10 of EC50 (log10 of the value in nM)
Short version: log10 scale, EC50, nM.

O=C(c1ccc(Nc2ncc(Cl)c(-c3cc4ccccc4s3)n2)cc1)N1CCC(N2CCCC2)CC1: 3.00

Consider the compound O=C(c1ccc(Nc2ncc(F)c(-c3cc4ccccc4s3)n2)cc1)N1CCC(N2CCCC2)CC1 and give its measured log10 of EC50. 2.78

Subsequent entry: Cc1ccc(-c2nc(Nc3ccc(C(=O)NCCCN4CCOCC4)cc3)ncc2Cl)s1 3.41

Same again, this time with O=C(c1ccc(Nc2nccc(-c3ccc4ccccc4c3)n2)cc1)N1CCC(N2CCCC2)CC1 2.73

Param item: c1ccc2sc(-c3ccnc(Nc4ccc(CN5CCC(N6CCCC6)CC5)cc4)n3)cc2c1 1.78

Do the same for Cc1cnc(Nc2ccc(C(=O)N3CCC(N4CCCC4)CC3)cc2)nc1-c1ccc(Cl)s1 please 2.76

Param item: Cc1cnc(Nc2ccc(C(=O)N3CCC(N4CCCC4)CC3)cc2)nc1-c1cc2ccccc2s1 2.88

# repeat for O=C(c1ccc(Nc2nccc(-c3cc4ccccc4s3)n2)cc1)N1CCC(N2CCCC2)CC1 2.45

Data origin, for the record: ChEMBL document CHEMBL5104191
